Hey, just so you know, these numbers are from PubChem BioAssay (NCI).

Experiment: NCI Yeast Anticancer Drug Screen. Data for the mlh1 rad18 strain (AID 175)
Conditions: S. cerevisiae mlh1 rad18 strain growth inhibition; at 50.0 µM; active compounds read high
Compounds without any hit were thinned out: in the full panel of roughly 79,000, 15% have a hit.
Readout Name: growth inhibition (%)
Answers are plain numbers, in %.

Please give growth inhibition, item by item, for the list that follows.
1. Cc1cc(N=C2C=CC(=O)C=C2)ccc1O
2. CSC(=NC(=O)c1c(Cl)cccc1Cl)SC
3. CCOC(=O)/C(=C\c1ccccc1)NC(=O)c1ccccc1
4. Oc1ccc2ccc3[nH]cnc3c2c1
5. COc1ccc(C(=O)/C=C/c2c[nH]c3ccccc23)c(O)c1
6. Cc1ccc(N(C)C(=O)Nc2ccccc2)c(C)c1
7. CC(C)=NOC(C)C(=O)O (centres undefined)
8. Cc1ccc(OCC2OC(n3cnc4c(N(C)C)nc(Br)nc43)CC2Oc2ccc(C)cc2)cc1 (centres undefined)

[25.6, 31.9, 4.85, 0.15, 22.4, -12.8, -3.15, -17]

Please give growth inhibition, item by item, for the list that follows.
1. CC1CC(=O)C(CC(=O)O)[C@H]1C(C(=O)C(=O)Nc1cc(Cl)ccc1Cl)[N+](=O)[O-] (some centres undefined)
2. O=C1OC(c2ccccc2)=C/C1=C/c1ccc(Cl)cc1
3. CCOC(=O)Cc1csc(N=Nc2c(O)[nH]c3ccccc23)n1
4. COc1ccc(CCNC(=S)NN)cc1OC
5. Nc1ccc(Cl)c(S(=O)(=O)O)c1
6. COc1ccc(NC(=O)C(=O)NNC(=O)c2sc(NNC(C)=O)nc2C)c([N+](=O)[O-])c1
7. CCc1nc2cc(F)ccc2[nH]c1=O
8. COc1ccc(C(=O)N=Nc2ccccc2)cc1

1: -2; 2: -8.3; 3: 17.6; 4: -28.7; 5: 17.1; 6: 5.3; 7: -7.55; 8: -13.1

Please give growth inhibition, item by item, for the list that follows.
1. CC1CNC(=S)N(c2cccc3ccccc23)C1=O (centres undefined)
2. COc1cc2c(c(OC)c1OC)-c1ccc(SC)c(=O)cc1C(N=C(NC1OCC(OC(C)=O)C(OC(C)=O)C1OC(C)=O)SN(NC(=O)OCc1ccccc1)C(=O)OCc1ccccc1)CC2 (centres undefined)
3. CCCCC(O)(c1ccccc1)c1ccccc1CN(C)C (centres undefined)
4. O=C(COc1ccccc1Cl)N1N=C(c2ccccc2)CC1(O)c1ccccc1 (centres undefined)
5. CCOC(=O)c1cccc(C(=O)OCC)n1
6. CCOc1ccc(/C=C2\CCc3ccccc3C2=O)cc1
7. Cc1cc(C)c(NS(=O)c2cccc(Cl)c2)c(C)c1 (centres undefined)

4.2
32.3
-4.8
15.9
-14.6
21.6
-50.2

The compound listed as N=C(N)c1ccc(NC(=O)c2ccc(C(=O)Nc3ccc(C(=N)N)cc3)c(N)c2)cc1 has a reported growth inhibition of -7.3

---

Experiment: NCI Yeast Anticancer Drug Screen. Data for the rad50 strain (AID 155);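 note: 0% = growth of vehicle-only cultures of the same strain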
Settings: S. cerevisiae rad50 strain growth inhibition; at 50.0 µM; active compounds read high
Compounds without any hit were thinned out: in the full panel of roughly 79,000, 15% have a hit.
Please provide measured growth inhibition for the entries that follow.
Numbers only, in %.

Worked cases, answers included:
[[record]]
molecule = "C=CCCC(C)N(C(=O)OC(C)(C)C)S(=O)(=O)c1ccc(C)cc1 (stereo unspecified)"
measurement = 16.6

[[record]]
molecule = "COc1ccc(N(N=Nc2ccccc2)C(C)=O)cc1"
measurement = -2.05

[[record]]
molecule = "CCCCCCC(C)CC1=C(O)c2ccccc2C(=O)C1=O (stereo unspecified)"
measurement = -18.5


Please give growth inhibition, item by item, for the list that follows.
1. C=C(CCCCCCCCC)CC(=O)SCCNC(=O)CCNC(=O)C(O)C(C)(C)COP(=O)(O)OP(=O)(O)OCC1OC(n2cnc3c(N)ncnc32)C(O)C1OP(=O)(O)O (stereo unspecified)
2. Cc1ccccc1NC(=O)CC(=O)N1N=C(N(CCC#N)c2ccccc2Cl)CC1c1ccccc1 (stereo unspecified)
3. c1ccc(CC[n+]2ccncc2)cc1
4. CCCC[N+](C)(C)CC[N+](C)(C)CCCC
5. CCOC(=O)C(C=Nc1ccc(S(N)(=O)=O)cc1)C(=O)OCC
6. CCCCCCCc1cc(=O)[nH]c(=S)[nH]1

1: -7.95; 2: 4.1; 3: -8.75; 4: 4.25; 5: -8.15; 6: 4.05

Please give growth inhibition, item by item, for the list that follows.
1. CCOC(=O)CC(=O)C(=O)NNC1=NCCN1
2. O=c1oc2ccccc2c(=O)n1O

7.15
65.8
